As shown below, each of these molecules has a reported pIC50 value.
Test system: SARS-CoV-2 Omicron mutant BA.2 (SARS-CoV-2奥密克戎毒突变种BA.2)
Format: cell-based, SARS-CoV-2 Omicron BA.2
Settings: 20 h
A value of pIC50 is the negative decimal logarithm of a concentration given in moles per litre.

Input "CO[C@H]1/C=C/C=C/C=C/C[C@H](OC(=O)[C@@H](C)NC(=O)CCC(C)C)[C@H](C)[C@@H](O)/C(CO)=C\CCc2cc(F)cc(c2)NC(=O)C1" , output reported pIC50.
6.35

// fetch pIC50 given entry "C/C=C(\C)C(=O)N[C@H](C)C(=O)O[C@H]1C/C=C/C=C/C=C/[C@H](OC)CC(=O)Nc2cc(ccc2F)CC/C=C(/C)[C@H](O)[C@H]1C"
6.38

Determine from records and report pIC50 for "CO[C@H]1/C=C/C=C/C=C/C[C@H](OC(=O)[C@@H](C)NC(=O)CCC(C)C)[C@H](C)[C@@H](O)/C(C)=C\CCc2ccc(F)c(c2)NC(=O)C1"
5.96

Using known records, supply pIC50 for "CO[C@H]1/C=C/C=C/C=C/C[C@H](O)[C@H](C)[C@@H](OC(=O)[C@@H](C)NC(=O)CC(C)C)/C(C)=C\CCc2ccc(F)c(c2)NC(=O)C1"
5.93

Answer with reported pIC50 of "CO[C@H]1/C=C/C=C/C=C/C[C@H](OC(=O)[C@@H](C)NC(=O)CC(C)C)[C@H](C)[C@@H](O)/C(C)=C\CCc2ccc(F)c(c2)NC(=O)C1"
6.52

###

Test system: SARS-CoV-2 Omicron mutant BA.2 (SARS-CoV-2奥密克戎毒突变种BA.2)
Format: cell-based, SARS-CoV-2 Omicron BA.2
Details: 20 h
measured.parameter: IC50 (nM)
Field: numeric (nM). Do not append units.

Note IC50 for the compound shown: "COc1cc2cc(c1)NC(=O)C[C@@H](OC)/C=C/C=C/C=C/C[C@H](O)[C@H](C)[C@@H](OC(=O)[C@@H](C)NC(=O)CC(C)C)/C(C)=C\CC2"
825

Provide measured IC50 value, entry: "COc1cc2c(O)c(c1)NC(=O)C[C@@H](OC)/C=C/C=C/C=C/C[C@H](O)[C@H](C)[C@@H](OC(=O)[C@@H](C)NC(=O)CC(C)C)/C(C)=C\CC2"
400

# return recorded IC50 for entry CCC(C)C(=O)N[C@H](C)C(=O)O[C@H]1C/C=C/C=C/C=C/[C@H](OC)CC(=O)Nc2cc(ccc2F)CC/C=C(/C)[C@H](O)[C@H]1C (stereo partly shown)
200
